Taken from patent US20190315854A1.

Target: T1, sIL-6R (soluble IL-6 receptor; SBH Sciences) (human, UniProt P08887 20-365)
T1 construct: also called human IL-6R
T1 sequence: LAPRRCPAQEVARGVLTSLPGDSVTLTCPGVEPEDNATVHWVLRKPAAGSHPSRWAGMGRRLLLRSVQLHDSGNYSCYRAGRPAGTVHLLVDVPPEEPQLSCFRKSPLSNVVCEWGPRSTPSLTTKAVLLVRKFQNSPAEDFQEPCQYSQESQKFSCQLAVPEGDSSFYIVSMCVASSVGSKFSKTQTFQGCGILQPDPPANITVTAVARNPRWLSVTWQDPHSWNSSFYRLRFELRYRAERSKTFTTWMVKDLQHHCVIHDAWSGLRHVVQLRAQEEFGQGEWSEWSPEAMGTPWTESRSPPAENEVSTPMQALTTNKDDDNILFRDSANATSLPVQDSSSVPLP
Assay: SPR (BIAcore 3000), antibody on chip, sIL-6R analyte, 25 C
Below: a set of entries, each annotated with reported koff.

binder	koff, s⁻¹
219# (antibody, human IgG1, kappa, V domains shown) VH: QVQLQESGPGLVRPSQTLSLTCTVSGYSITSDHAWSWVRQPPGRGLEWIGYISYSGITTYNPSLKSRVTMLRDTSKNQFSLRLSSVTAADTAVYYCARCLARMTAIDFWGQGSLVTVSS VL: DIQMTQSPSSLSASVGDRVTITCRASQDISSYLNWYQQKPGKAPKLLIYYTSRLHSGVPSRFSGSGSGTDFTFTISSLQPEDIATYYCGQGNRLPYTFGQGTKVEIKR	5.96e-05
52# (antibody, human IgG1, kappa, V domains shown, also called Sample # 52) VH: QVQLQESGPGLVRPSQTLSLTCTVSGYSITSDHAWSWVRQPPGRGLEWIGYISYSGITTYNPSLKSRVTMLRDTSKNQFSLRLSSVTAADTAVYYCARSLARTTAIDFWGQGSLVTVSS VL: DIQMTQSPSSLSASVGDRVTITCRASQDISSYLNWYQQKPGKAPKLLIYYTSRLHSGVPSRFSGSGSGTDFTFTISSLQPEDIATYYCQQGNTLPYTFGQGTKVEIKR	0.000199
233# (antibody, human IgG1, kappa, V domains shown) VH: QVQLQESGPGLVRPSQTLSLTCTVSGYSITSDHAWSWVRQPPGRGLEWIGYISYSGMITYNPSLKSRVTMLRDTSKNQFSLRLSSVTAADTAVYYCARTLARTTAIDFWGQGSLVTVSS VL: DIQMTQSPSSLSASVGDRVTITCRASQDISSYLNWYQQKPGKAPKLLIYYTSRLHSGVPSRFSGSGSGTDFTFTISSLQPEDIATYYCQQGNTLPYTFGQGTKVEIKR	5.75e-05
220# (antibody, human IgG1, kappa, V domains shown, also called Sample # 220) VH: QVQLQESGPGLVRPSQTLSLTCTVSGYSITSDHAWSWVRQPPGRGLEWIGYISYSGMITYNPSLKSRVTMLRDTSKNQFSLRLSSVTAADTAVYYCARSLARMTAMDYWGQGSLVTVSS VL: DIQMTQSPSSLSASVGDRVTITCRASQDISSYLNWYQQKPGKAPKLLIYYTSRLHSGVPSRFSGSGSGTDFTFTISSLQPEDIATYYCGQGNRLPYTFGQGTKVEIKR	6.34e-05
245# (antibody, human IgG1, kappa, V domains shown) VH: QVQLQESGPGLVRPSQTLSLTCTVSGYSITSDHAWSWVRQPPGRGLEWIGYISYSGMITYNPSLKSRVTMLRDTSKNQFSLRLSSVTAADTAVYYCARTLARMTAMDYWGQGSLVTVSS VL: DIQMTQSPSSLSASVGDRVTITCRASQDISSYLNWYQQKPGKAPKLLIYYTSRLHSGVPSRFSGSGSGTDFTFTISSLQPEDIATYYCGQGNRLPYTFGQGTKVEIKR	3.53e-05
230# (antibody, human IgG1, kappa, V domains shown, also called Sample # 230) VH: QVQLQESGPGLVRPSQTLSLTCTVSGYSITSDHAWSWVRQPPGRGLEWIGYISYSGMITYNPSLKSRVTMLRDTSKNQFSLRLSSVTAADTAVYYCARCLARTTAIDFWGQGSLVTVSS VL: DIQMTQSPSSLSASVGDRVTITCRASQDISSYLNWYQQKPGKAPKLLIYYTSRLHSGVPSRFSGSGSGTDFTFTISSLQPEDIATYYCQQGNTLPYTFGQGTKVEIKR	6.15e-05
